Source: patent US8716221B2

Format: physicochemical
Recorded Conditions: pH 4.5, 40° C., 5 days
Where no end group is shown, it is not given here. [ ]: non-standard residue; d: D form. code ∗ = not defined here
Metric: 5 days Purity (%)
Unit % implied. Number only.

Below: 6 substances and their reported 5 days Purity (%).
Substance	Metric	Measurement
HdAEGTFTSDL SKQMEEEAVR LFIEWLKNGG PSSGAPPPC-PEG40K [Sample 4]	5 days Purity (%)	99.4
HdAEGTFTTSDL SKQNleEEEAVR LFIEWLKQGG PSSGAPPPC(AM) [Sample 9-2]	5 days Purity (%)	98.9
HdAEGTFTSDL SKQMEEEAVR LFIEWLKNGG PSSGAPPPC-NH2 [Sample 2-1]	5 days Purity (%)	93.8
HdAEGTFTTSDL SKQNleEEEAVR LFIEWLKQGG PSSGAPPPC-PEG40K [Sample 13]	5 days Purity (%)	99.6
HdAEGTFTSDL SKQMEEEAVR LFIEWLVKGG PSSGAPPPK* (H[dA]EGTFTSDLSKQMEEEAVRLFIEWLVKGGPSSGAPPPK(code ∗); reading uncertain; also: C-terminal modification (*)) [Sample 11]	5 days Purity (%)	96.7
HGEGTFTSDLSKQMEEEAVRLFIEWLKQGGPSSGAPPPK* [Sample 5]	5 days Purity (%)	96.3

Query block: Entry HdAEGTFTSDL SKQNleEEEAVR LFIEWLKQGG PSSGAPPPS-NH2 [Sample 3] : reported 5 days Purity (%) = ?
Result block: 98.7
